target: Sodium-dependent dopamine transporter (Homo sapiens, UniProt Q01959); experiment: Inhibition of [3H]-5-dopamine reuptake in human DAT expressed in HEK293 cells by liquid scintillation counting method
Sequence (Q01959 whole entry): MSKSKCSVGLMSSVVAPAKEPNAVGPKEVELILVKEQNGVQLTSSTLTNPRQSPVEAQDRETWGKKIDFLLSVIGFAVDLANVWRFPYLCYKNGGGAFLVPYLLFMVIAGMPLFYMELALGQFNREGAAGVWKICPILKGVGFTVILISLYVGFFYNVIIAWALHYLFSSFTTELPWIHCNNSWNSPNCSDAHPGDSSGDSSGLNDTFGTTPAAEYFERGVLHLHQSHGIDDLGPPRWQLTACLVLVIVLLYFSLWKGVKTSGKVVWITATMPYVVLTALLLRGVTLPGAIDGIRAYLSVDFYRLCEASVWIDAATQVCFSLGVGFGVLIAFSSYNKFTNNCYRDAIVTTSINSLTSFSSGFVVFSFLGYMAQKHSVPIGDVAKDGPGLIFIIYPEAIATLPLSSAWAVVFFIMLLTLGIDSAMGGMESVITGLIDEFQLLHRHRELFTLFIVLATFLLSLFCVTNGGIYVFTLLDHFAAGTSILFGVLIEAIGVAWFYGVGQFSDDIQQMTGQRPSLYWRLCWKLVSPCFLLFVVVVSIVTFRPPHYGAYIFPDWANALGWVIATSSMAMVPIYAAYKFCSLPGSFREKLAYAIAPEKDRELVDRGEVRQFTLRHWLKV
OUTCOME_MEASURE: pIC50
As a rule, pIC50 stands for the negative log10 of the concentration, concentration in M.

Field: example entries. Status: answers known.
Clc1ccc(N2CCN(CCCn3nnnc3C(c3ccccc3)c3ccccc3)CC2)cc1 :: 5.92
Clc1ccccc1N1CCN(CCCn2nnnc2C(c2ccccc2)c2ccccc2)CC1 :: 6.00

Switching to the query record.
Fill blank: measured pIC50 of the molecule "Brc1ccc(N2CCN(CCCn3nnnc3C(c3ccccc3)c3ccccc3)CC2)cc1" is ____.
6.04

---

// values below are reported pIC50
target: Sodium-dependent dopamine transporter (Homo sapiens); assay: Inhibition of [3H]-5-dopamine reuptake in human DAT expressed in HEK293 cells by liquid scintillation counting method
As a rule, pIC50 stands for the negative log10 of the concentration, concentration in M.

Fc1ccccc1N1CCN(CCCn2nnnc2C(c2ccccc2)c2ccccc2)CC1 :: 5.88

Switching to the query record.
Fill blank: measured pIC50 of the compound "Fc1cccc(F)c1N1CCN(CCCn2nnnc2C(c2ccccc2)c2ccccc2)CC1" is ____.
6.09

---

// values below are reported IC50
biological target: Sodium-dependent noradrenaline transporter (Homo sapiens, UniProt P23975); test: Inhibition of [3H]-5-norepinephrine reuptake in human NET expressed in HEK293 cells by liquid scintillation counting method
Sequence (P23975 whole entry): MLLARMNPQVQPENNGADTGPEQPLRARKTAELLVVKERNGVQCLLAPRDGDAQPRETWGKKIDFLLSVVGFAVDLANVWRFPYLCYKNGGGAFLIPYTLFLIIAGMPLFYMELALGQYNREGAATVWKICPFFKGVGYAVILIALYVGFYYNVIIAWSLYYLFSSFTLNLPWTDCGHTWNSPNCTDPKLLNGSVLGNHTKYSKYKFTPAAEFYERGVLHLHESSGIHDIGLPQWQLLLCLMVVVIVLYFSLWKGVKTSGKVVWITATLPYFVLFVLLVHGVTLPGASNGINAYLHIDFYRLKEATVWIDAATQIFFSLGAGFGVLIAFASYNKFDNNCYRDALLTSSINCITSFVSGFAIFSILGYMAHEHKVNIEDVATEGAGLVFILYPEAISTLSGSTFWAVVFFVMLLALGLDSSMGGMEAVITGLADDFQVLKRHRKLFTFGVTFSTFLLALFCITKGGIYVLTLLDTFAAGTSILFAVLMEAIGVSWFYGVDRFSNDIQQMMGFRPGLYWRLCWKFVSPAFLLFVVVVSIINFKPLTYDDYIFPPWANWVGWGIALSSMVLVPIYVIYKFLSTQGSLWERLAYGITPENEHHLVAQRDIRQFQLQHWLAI
Write the quantity with the unit trailing the number.

Field: example entries. Status: answers known.
c1ccc(C(c2ccccc2)c2nnnn2CCCCN2CCN(c3ncccn3)CC2)cc1 :: 8540 nM
c1ccc(C(c2ccccc2)c2nnnn2CCCCN2CCN(c3ccccn3)CC2)cc1 :: 4700 nM
Clc1ccc(N2CCN(CCCn3nnnc3C(c3ccccc3)c3ccccc3)CC2)c(Cl)c1 :: 2050 nM
Clc1cccc(N2CCN(CCCn3nnnc3C(c3ccccc3)c3ccccc3)CC2)c1Cl :: 1100 nM

Fill blank: measured IC50 of the compound "COc1ccc(N2CCN(CCCn3nnnc3C(c3ccccc3)c3ccccc3)CC2)cc1" is ____.
1060 nM

---

// values below are reported IC50
target: Sodium-dependent dopamine transporter (Homo sapiens); assay: Inhibition of [3H]-5-dopamine reuptake in human DAT expressed in HEK293 cells by liquid scintillation counting method
Kindly answer with a numeric value in µM, unit omitted.

Field: example entries. Status: answers known.
Fc1ccc(N2CCN(CCCn3nnnc3C(c3ccccc3)c3ccccc3)CC2)cc1 :: 2.48
Fc1cccc(N2CCN(CCCn3nnnc3C(c3ccccc3)c3ccccc3)CC2)c1 :: 1.47

Switching to the query record.
Fill blank: measured IC50 of the compound "COc1ccc(N2CCN(CCCn3nnnc3C(c3ccccc3)c3ccccc3)CC2)cc1" is ____.
3.85

---

molecular target: Sodium-dependent noradrenaline transporter (Homo sapiens); test: Inhibition of [3H]-5-norepinephrine reuptake in human NET expressed in HEK293 cells by liquid scintillation counting method
OUTCOME_MEASURE: IC50 (µM)
Kindly answer with a numeric value in µM, unit omitted.

Field: example entries. Status: answers known.
Fc1ccccc1N1CCN(CCCn2nnnc2C(c2ccccc2)c2ccccc2)CC1 :: 0.35
Clc1ccc(N2CCN(CCCn3nnnc3C(c3ccccc3)c3ccccc3)CC2)cc1 :: 0.46
FC(F)(F)c1cccc(N2CCN(CCCn3nnnc3C(c3ccccc3)c3ccccc3)CC2)c1 :: 2.48

Fill blank: measured IC50 of the molecule "Cc1ccc(N2CCN(CCCn3nnnc3C(c3ccccc3)c3ccccc3)CC2)cc1" is ____.
0.87

Fill blank: measured IC50 of the molecule "COc1ccccc1N1CCN(CCCn2nnnc2C(c2ccccc2)c2ccccc2)CC1" is ____.
0.5

Fill blank: measured IC50 of the molecule "Fc1cccc(F)c1N1CCN(CCCn2nnnc2C(c2ccccc2)c2ccccc2)CC1" is ____.
0.51

Fill blank: measured IC50 of the molecule "Fc1cc(Cl)ccc1N1CCN(CCCn2nnnc2C(c2ccccc2)c2ccccc2)CC1" is ____.
1.1

Fill blank: measured IC50 of the molecule "c1ccc(C(c2ccccc2)c2nnnn2CCCN2CCN(c3ccccn3)CC2)cc1" is ____.
0.92

Fill blank: measured IC50 of the molecule "c1ccc(C(c2ccccc2)c2nnnn2CCCN2CCN(c3ncccn3)CC2)cc1" is ____.
0.8

Fill blank: measured IC50 of the molecule "Brc1ccc(N2CCN(CCCn3nnnc3C(c3ccccc3)c3ccccc3)CC2)cc1" is ____.
1.2

Fill blank: measured IC50 of the molecule "c1ccc(C(c2ccccc2)c2nnnn2CCCN2CCN(c3ccccc3)CC2)cc1" is ____.
1.45

Fill blank: measured IC50 of the molecule "Cc1cccc(C)c1N1CCN(CCCn2nnnc2C(c2ccccc2)c2ccccc2)CC1" is ____.
1.72

Fill blank: measured IC50 of the molecule "Clc1ccc(N2CCN(CCCn3nnnc3C(c3ccccc3)c3ccccc3)CC2)cc1Cl" is ____.
4

Fill blank: measured IC50 of the molecule "Clc1ccccc1N1CCN(CCCn2nnnc2C(c2ccccc2)c2ccccc2)CC1" is ____.
0.67

Fill blank: measured IC50 of the molecule "Clc1cccc(N2CCN(CCCn3nnnc3C(c3ccccc3)c3ccccc3)CC2)c1" is ____.
1.62

Fill blank: measured IC50 of the molecule "Fc1ccc(N2CCN(CCCn3nnnc3C(c3ccccc3)c3ccccc3)CC2)c(F)c1" is ____.
2.16

Fill blank: measured IC50 of the molecule "Fc1ccc(C(F)(F)F)cc1N1CCN(CCCn2nnnc2C(c2ccccc2)c2ccccc2)CC1" is ____.
1.09

Fill blank: measured IC50 of the molecule "Fc1cccc(N2CCN(CCCn3nnnc3C(c3ccccc3)c3ccccc3)CC2)c1" is ____.
1.89

Fill blank: measured IC50 of the molecule "Fc1ccc(N2CCN(CCCn3nnnc3C(c3ccccc3)c3ccccc3)CC2)cc1" is ____.
0.08

Fill blank: measured IC50 of the molecule "COc1ccccc1N1CCN(CCCCn2nnnc2C(c2ccccc2)c2ccccc2)CC1" is ____.
10

Fill blank: measured IC50 of the molecule "Clc1cccc(N2CCN(CCCCn3nnnc3C(c3ccccc3)c3ccccc3)CC2)c1Cl" is ____.
8.87
